# Study system: T1, FcRn (analyte in the Biacore T200 study) (human, UniProt P55899 24-297; P61769 21-119, limits assumed)
# T1 construct: also called human FcRn
# T1 sequence (P55899 24-297 limits assumed, chain 1 of 2): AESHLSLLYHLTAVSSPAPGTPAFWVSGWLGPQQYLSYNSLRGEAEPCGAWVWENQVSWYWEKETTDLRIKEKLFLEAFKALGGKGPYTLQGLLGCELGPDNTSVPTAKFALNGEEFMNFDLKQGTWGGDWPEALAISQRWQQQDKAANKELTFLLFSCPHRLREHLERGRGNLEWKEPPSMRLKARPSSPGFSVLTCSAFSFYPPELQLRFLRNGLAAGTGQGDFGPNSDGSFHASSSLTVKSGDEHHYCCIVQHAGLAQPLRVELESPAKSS
# T1 sequence (P61769 21-119 limits assumed, chain 2 of 2): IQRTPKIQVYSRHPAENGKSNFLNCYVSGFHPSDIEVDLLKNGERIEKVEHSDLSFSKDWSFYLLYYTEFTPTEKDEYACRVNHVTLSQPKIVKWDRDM
# Experimental details: SPR Biacore T200, antibody amine-coupled to CM5, FcRn analyte, 1:1 model; pH not stated
Can you tell me Kd for the items I'm about to list?
Report field: quantity (unit follows the number).

Binder | Kd
G47_H6/Vκ3 (antibody, IgG4, V domains shown, IgG4 with S241P, human kappa; also called G47_H6 VH1) VH: EVQLVESGGGLVKPGGSLKLSCAASGFTFSDYGMHWVRQAPGKGLEWVAYISSGSSTIYYADTVKGRFTISRDNAKNTLYLQMNSLRAEDTAMYYCARFSSLSTVGDYWGQGTSVTVSS VL: DIVMTQSPDSLSASVGDRVTITCKASQSVSNDVAWYQQKPGQPPKLLIYYASNRYTGVPDRFSGSGYGTDFTLTISSLQAEDVAVYFCQQDYSSLTFGQGTKLEIK | 2.09 nM

Attention now turns to another entry.
Given the entry G49_H9.5/Vκ3 (antibody, V domains shown, Bivalent IgG4 with S241P, human kappa; also called G49_H9.5 VH1) VH: EVQLVESGGGLVKPGGSLKLSCAASGFTFSDYGMHWVRQAPGKGLEWVAYISSGSSTIYYADTVKGRFTISRDNAKNTLYLQMNSLRAEDTAMYYCARLEAVSAVGDYWGQGTSVTVSS VL: DIVMTQSPDSLSASVGDRVTITCKASQSVSNDVAWYQQKPGQPPKLLIYYASNRYTGVPDRFSGSGYGTDFTLTISSLQAEDVAVYFCQQDYSSLTFGQGTKLEIK , report its measured Kd.
1.21 nM

// provenance: patent US20190135915A1
